Each entry below carries its reported normalized growth.
Experiment: chemical genetic growth profiling, strain panel (AID 1159580);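 also: tested at 20 µM; growth read once vehicle control cultures reached saturation at 30 °C; 1 = growth at the plate median or of vehicle wells; lower values mean less growth of the strain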
Conditions: S. cerevisiae deletion strains, growth OD, locus YNL071W, strain lat1, hits give low values
Among all 5,500 compounds or so, about 2,000 (36%) were called active. Another 18% or so got no clear call; they are omitted. Some of the results follow.
value-kind: normalized growth

[[record]]
mol_smiles = "COc1ccc2ccc(=O)oc2c1CC=C(C)C"
value_kind = "normalized growth"
result = 0.672

[[record]]
mol_smiles = "O=C(CCCN1CC=C(n2c(=O)[nH]c3ccccc32)CC1)c1ccc(F)cc1"
value_kind = "normalized growth"
result = 0.982

[[record]]
mol_smiles = "COc1ccc2[nH]cc(CCNC(C)=O)c2c1"
value_kind = "normalized growth"
result = 0.975

[[record]]
mol_smiles = "CC(C)=CCOc1cc2oc(=O)ccc2cc1O"
value_kind = "normalized growth"
result = 0.898

[[record]]
mol_smiles = "Cc1ncc([N+](=O)[O-])n1CCO"
value_kind = "normalized growth"
result = 0.978

[[record]]
mol_smiles = "O=C(O)CCCN1C(=O)c2cccc3cccc(c23)C1=O"
value_kind = "normalized growth"
result = 0.994

[[record]]
mol_smiles = "COc1cc2ccc(=O)oc2cc1O"
value_kind = "normalized growth"
result = 0.986

[[record]]
mol_smiles = "O=c1[nH]c2ccccc2n1CCCN1CCC(n2c(=O)[nH]c3cc(Cl)ccc32)CC1"
value_kind = "normalized growth"
result = 0.989

[[record]]
mol_smiles = "O=c1ccc2cc(O[C@@H]3O[C@H](CO)[C@@H](O)[C@H](O)[C@H]3O)c(O)cc2o1"
value_kind = "normalized growth"
result = 0.993

[[record]]
mol_smiles = "O=C(/C=C/C(=O)Oc1ccccc1C(=O)O)Oc1ccccc1C(=O)O"
value_kind = "normalized growth"
result = 1

[[record]]
mol_smiles = "CC(C)=CCOc1c2occc2cc2ccc(=O)oc12"
value_kind = "normalized growth"
result = 0.573

[[record]]
mol_smiles = "COc1cc2ccc(=O)oc2c(OC)c1OC"
value_kind = "normalized growth"
result = 0.999


====

Each entry below carries its reported normalized growth.
Test: chemical genetic growth profiling, strain panel (AID 1159580);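 also: tested at 20 µM; growth read once vehicle control cultures reached saturation at 30 °C; 1 = growth at the plate median or of vehicle wells; lower values mean less growth of the strain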
Details: S. cerevisiae deletion strains, growth OD, locus YML016C, strain PPZ1, hits give low values
The campaign covered roughly 5,500 compounds. About 2,000 (36%) were called active. Inconclusive results (about 18%) are left out. This is one part of the list.
value-kind: normalized growth

[[record]]
compound = "CC(C)(O)CC[C@@H](O)[C@](C)(O)C1CC[C@@]2(O)C3=CC(=O)C4C[C@@H](O)[C@@H](O)C[C@]4(C)C3CC[C@]12C (some centres undefined)"
value_kind = "normalized growth"
result = 1.01

[[record]]
compound = "COc1c(O)cc(O)cc1O"
value_kind = "normalized growth"
result = 0.994

[[record]]
compound = "COc1ccc2[nH]cc(CCNC(C)=O)c2c1"
value_kind = "normalized growth"
result = 1.01

[[record]]
compound = "CC(=O)OC1CCC2C3CCc4cc(O)ccc4C3CCC12C (centres undefined)"
value_kind = "normalized growth"
result = 1

[[record]]
compound = "COC(=O)C[C@H]1C(C)(C)C(OC(C)=O)[C@]2(O)C=C3C4CC(=O)O[C@@H](c5ccoc5)[C@]4(C)CCC3[C@@]1(C)C2=O (some centres undefined)"
value_kind = "normalized growth"
result = 0.999

[[record]]
compound = "CC(=O)OC1CCC23C(=O)OC45CCC(C6=CC(=O)OC6)C4(C)CCC2C5CCC3(O)C1 (centres undefined)"
value_kind = "normalized growth"
result = 1.01

[[record]]
compound = "Cc1ncc([N+](=O)[O-])n1CCO"
value_kind = "normalized growth"
result = 0.986

[[record]]
compound = "CCOc1nc2cccc(C(=O)OC(C)OC(=O)OC3CCCCC3)c2n1Cc1ccc(-c2ccccc2-c2nn[nH]n2)cc1 (centres undefined)"
value_kind = "normalized growth"
result = 1.01

[[record]]
compound = "O=c1n(CCCN2CCN(c3cccc(Cl)c3)CC2)nc2ccccn12"
value_kind = "normalized growth"
result = 0.98

[[record]]
compound = "O=c1ccc2cc(O[C@@H]3O[C@H](CO)[C@@H](O)[C@H](O)[C@H]3O)c(O)cc2o1"
value_kind = "normalized growth"
result = 1.02

[[record]]
compound = "Cc1cccc(N(C)C(=S)Oc2ccc3ccccc3c2)c1"
value_kind = "normalized growth"
result = 0.998

[[record]]
compound = "CCCCCN=C(N)N/N=C\\c1c[nH]c2ccc(OC)cc12"
value_kind = "normalized growth"
result = 1

[[record]]
compound = "COc1cc(O)c(C(C)=O)c(OC)c1"
value_kind = "normalized growth"
result = 1

[[record]]
compound = "CN1CCN(C(c2ccccc2)c2ccccc2)CC1"
value_kind = "normalized growth"
result = 1

[[record]]
compound = "CSCCC(NC=O)C(=O)NC(CC(C)C)C(=O)NC(Cc1ccccc1)C(=O)O (centres undefined)"
value_kind = "normalized growth"
result = 1

[[record]]
compound = "CC1=C(C(=O)O)N2C(=O)[C@@H](NC(=O)[C@H](N)C3=CCC=CC3)C2SC1 (some centres undefined)"
value_kind = "normalized growth"
result = 0.986

[[record]]
compound = "CC(C)=CCOc1cc2oc(=O)ccc2cc1O"
value_kind = "normalized growth"
result = 0.948

[[record]]
compound = "Cc1c(N(C)CS(=O)(=O)O)c(=O)n(-c2ccccc2)n1C"
value_kind = "normalized growth"
result = 0.99

[[record]]
compound = "COc1ccc2c(c1)[nH]c1c(C)nccc12"
value_kind = "normalized growth"
result = 1.01

[[record]]
compound = "CCCCC(=O)N(Cc1ccc(-c2ccccc2-c2nn[nH]n2)cc1)[C@H](C(=O)O)C(C)C"
value_kind = "normalized growth"
result = 0.994

[[record]]
compound = "Cn1c(=O)[nH]c(=O)c2[nH]cnc21"
value_kind = "normalized growth"
result = 0.986

[[record]]
compound = "CC(=O)OCC(=O)[C@@]1(O)CCC2C3CCC4=CC(=O)CC[C@]4(C)[C@@]3(F)[C@@H](O)C[C@@]21C (some centres undefined)"
value_kind = "normalized growth"
result = 1

[[record]]
compound = "CCCc1nc(C(C)(C)O)c(C(=O)OCc2oc(=O)oc2C)n1Cc1ccc(-c2ccccc2-c2nn[nH]n2)cc1"
value_kind = "normalized growth"
result = 0.993

[[record]]
compound = "COc1cc2ccc(=O)oc2c(O)c1O"
value_kind = "normalized growth"
result = 0.996

[[record]]
compound = "CC1=C2CCC3C(CC[C@]4(C)C(=O)CCC34)[C@@]2(C)CCC1=O (some centres undefined)"
value_kind = "normalized growth"
result = 0.965

[[record]]
compound = "CCN(CC)CCNC(=O)COc1ccc(OC)cc1"
value_kind = "normalized growth"
result = 1.01

[[record]]
compound = "NCCS"
value_kind = "normalized growth"
result = 1.02

[[record]]
compound = "C[C@]12CCC3c4ccc(O)cc4CCC3C1CC[C@@H]2OC(=O)CCC1CCCC1 (some centres undefined)"
value_kind = "normalized growth"
result = 0.988

[[record]]
compound = "CCCCC(=O)O[C@H]1CCC2C3CCc4cc(O)ccc4C3CC[C@@]21C (some centres undefined)"
value_kind = "normalized growth"
result = 0.979

[[record]]
compound = "C/C=C(\\C)C(=O)OC1[C@@H]2C=C3C4CC(=O)O[C@@H](c5ccoc5)[C@]4(C)CCC3[C@@](C)(C2=O)[C@@H](C(O)C(=O)OC)C1(C)C (some centres undefined)"
value_kind = "normalized growth"
result = 0.999

[[record]]
compound = "CC(C)=CCC1=C(O)c2ccccc2C(=O)C1=O"
value_kind = "normalized growth"
result = 0.958

[[record]]
compound = "CC1(C)S[C@@H]2[C@H](NC(=O)COc3ccccc3)C(=O)N2[C@H]1C(=O)O"
value_kind = "normalized growth"
result = 1.01

[[record]]
compound = "CNC(=O)CSP(=S)(OC)OC"
value_kind = "normalized growth"
result = 1

[[record]]
compound = "COc1cc(OC)c2c(c1Cl)OC1(C2=O)C(O)=CC(=O)CC1C (centres undefined)"
value_kind = "normalized growth"
result = 1.03

[[record]]
compound = "Fc1ccc(C(c2ccc(F)cc2)N2CCN(C/C=C/c3ccccc3)CC2)cc1"
value_kind = "normalized growth"
result = 0.992

[[record]]
compound = "Cn1nnnc1SCC1=C(C(=O)O)N2C(=O)C(NC(=O)C(OC=O)c3ccccc3)C2SC1 (centres undefined)"
value_kind = "normalized growth"
result = 1.01

[[record]]
compound = "Cn1cnc([N+](=O)[O-])c1Sc1ncnc2nc[nH]c12"
value_kind = "normalized growth"
result = 1.02

[[record]]
compound = "C[C@]12CCC3C(CC[C@H]4C[C@@H](O)CC[C@]34C)C1CCC2=O (some centres undefined)"
value_kind = "normalized growth"
result = 0.931

[[record]]
compound = "COc1cc2ccc(=O)oc2cc1O"
value_kind = "normalized growth"
result = 0.986


This collection of values is drawn from PubChem BioAssay AID1159580.
